Sourced from patent US10961200B2

- study system: Human LDHA (Homo sapiens (Human), UniProt P00338)
- assay procedure: human LDHA primary biochemical assay (resazurin/diaphorase coupled, fluorescence)
- conditions used: LDHA inhibitory activity, assay of Example 1; activity level classes
pIC50: −log10 of the molar value.
Please provide measured pIC50 for the entries that follow.

smiles	observed result
CNS(=O)(=O)c1cc(-c2cc(O)n(-c3nc(C(=O)O)cs3)n2)ccc1F	< 4.24
O=C(Oc1ccc2c(c1)CCC2)c1csc(-n2nc(-c3ccc(F)c(F)c3)cc2O)n1	< 4.24

Parameters: items (list). Returns: pIC50 for each item.
1. O=C(O)c1csc(-n2nc(-c3ccc(F)c(F)c3)cc2C(=O)O)n1
2. CCOC(=O)c1csc(-n2nc(C3CCCCC3)c(Oc3ccc([S+](N)(=O)[O-])cc3)c2-c2ccccc2)n1

Response:
< 4.24
< 4.24

Parameters: items (list). Returns: pIC50 for each item.
1. CN1CC=C(c2cc(-c3nn(-c4nc(C(=O)O)cs4)c(CC4CC4)c3Cc3ccc(S(N)(=O)=O)c(F)c3)ccc2F)CC1
2. NS(=O)(=O)c1ccc(Cc2c(-c3cccc(-c4ccccc4)c3)nn(-c3nc(C(=O)O)cs3)c2C2CC2)c(F)c1
3. CCOC(=O)c1csc(-n2nc(-c3ccccc3)c(Cc3ccc(S(N)(=O)=O)cc3)c2Cc2nnn[nH]2)n1
4. CCOC(=O)c1csc(-n2nc(CC3CC3)c(Cc3ccc(S(N)(=O)=O)c(F)c3)c2-c2ccc(F)c(-c3cccc(OC)c3)c2)n1
5. COc1cc(-c2nn(-c3nc(C(=O)O)cs3)c(CC3CC3)c2Cc2ccc(S(N)(=O)=O)cc2)ccc1F
6. Nc1c(Cc2ccc(S(N)(=O)=O)cc2)c(-c2ccccc2)nn1C(=O)c1cccc2cc[nH]c12

Response:
["> 7.00", "> 7.00", "< 4.24", "< 4.24", "> 7.00", "< 4.24"]

Parameters: items (list). Returns: pIC50 for each item.
1. COc1cccc(-c2cc(-c3c(Cc4ccc([S+](N)(=O)[O-])cc4)c(CC4CC4)nn3-c3nc(C(=O)O)cs3)ccc2F)c1
2. CCOC(=O)c1csc(-n2nc(-c3cccc(OC4CCCC4)c3)c(Cc3ccc(S(N)(=O)=O)c(F)c3)c2CC2CC2)n1
3. Cc1ccc(-c2cc(-c3c(Cc4ccc(S(N)(=O)=O)cc4F)c(CC4CC4)nn3-c3nc(C(=O)O)cs3)ccc2F)cc1
4. Nc1c(Cc2ccc(S(N)(=O)=O)cc2)c(-c2ccccc2)nn1-c1nc(CO)cs1

Response:
< 4.24
4.24 to 6.00
4.24 to 6.00
< 4.24

Parameters: items (list). Returns: pIC50 for each item.
1. CS(=O)(=O)NCCc1cc(-c2cc(O)n(-c3nc(C(=O)O)cs3)n2)ccc1F
2. N[S+](=O)([O-])c1ccc(Cc2c(-c3ccc(F)c(-c4ccc(C5CC5)cc4)c3)nn(-c3nc(C(=O)O)cs3)c2CC2CC2)cc1
3. CCOC(=O)c1csc(-n2nc(-c3ccc(F)c(-c4ccc(F)cc4)c3)c(Cc3ccc(S(N)(=O)=O)c(F)c3)c2C2CC2)n1
4. NC(=O)c1csc(-n2nc(-c3ccccc3)c(Cc3ccc(S(N)(=O)=O)cc3)c2C(F)(F)F)n1
5. COc1cccc(-c2cc(-c3c(Cc4ccc(S(N)(=O)=O)cc4F)c(CC4CC4)nn3-c3nc(C(=O)O)cs3)ccc2F)c1

Response:
< 4.24
> 7.00
4.24 to 6.00
< 4.24
4.24 to 6.00

Parameters: items (list). Returns: pIC50 for each item.
1. CCOC(=O)c1csc(-n2nc(-c3cccc(-c4ccccc4)c3)c(Cc3ccc(S(N)(=O)=O)cc3F)c2C2CC2)n1
2. C#Cc1c(Cc2ccc(S(N)(=O)=O)cc2)c(-c2ccccc2)nn1-c1nc(C(=O)O)cs1
3. NS(=O)(=O)c1ccc(Cc2c(-c3ccc(F)c(C#CC4CCCC4)c3)nn(-c3nc(C(=O)O)cs3)c2CC2CC2)cc1F
4. CCOC(=O)c1csc(-n2nc(-c3cccc(-c4ccc(C)cc4)c3)c(Cc3ccc(S(N)(=O)=O)c(F)c3)c2CC2CC2)n1
5. CCOC(=O)c1csc(-n2nc(C3CC3)c(Cc3ccc(S(N)(=O)=O)cc3)c2-c2cccc(-c3ccccc3)c2)n1
6. NC(=O)c1ccc(Cc2c(-c3cccc(-c4ccccc4)c3)nn(-c3nc(C(=O)O)cs3)c2O)cc1
7. NS(=O)(=O)c1ccc(Cc2c(-c3ccccc3)nn(-c3nc(C(=O)O)cs3)c2C#CC2CC2)cc1
8. NS(=O)(=O)c1ccc(Cc2c(-c3cccc(OC4CCCC4)c3)nn(-c3nc(C(=O)O)cs3)c2CC2CC2)cc1

Response:
1: < 4.24; 2: 4.24 to 6.00; 3: > 7.00; 4: 4.24 to 6.00; 5: < 4.24; 6: < 4.24; 7: > 7.00; 8: > 7.00

Request: For NS(=O)(=O)c1ccc(Nc2c[nH]nc2-c2cccc(-c3ccccc3)c2)cc1 , what is its reported pIC50?
Response: < 4.24

###

- study system: Human LDHA (Homo sapiens (Human), UniProt P00338)
- assay procedure: human LDHA primary biochemical assay (resazurin/diaphorase coupled, fluorescence)
- conditions used: LDHA inhibitory activity, activity level based on IC50 (Table 7)
recorded endpoint: IC50

molecule	observed result
COc1cccc(-c2cccc(-c3c(Cc4ccc([S+](N)(=O)[O-])c(F)c4)c(C4CC4)nn3-c3nc(C(=O)O)cs3)c2)c1 [Compound 352]	1000 to 57000 nM
NS(=O)(=O)c1ccc(Cc2c(-c3cccc(OCc4ccccc4)c3)nn(-c3nc(C(=O)O)cs3)c2CC2CC2)cc1F [Compound 340]	< 100 nM
NS(=O)(=O)c1ccc(Cc2c(-c3ccc(F)c(C(=O)NCc4ccccc4)c3)nn(-c3nc(C(=O)O)cs3)c2CC2CC2)cc1F [Compound 544]	< 100 nM
CC(c1ccccc1)c1cc(-c2nn(-c3nc(C(=O)O)cs3)c(CC3CC3)c2Cc2ccc(S(N)(=O)=O)c(F)c2)ccc1F (stereo not drawn) [Compound 384]	< 100 nM
NS(=O)(=O)c1ccc(Cc2c(-c3ccc(F)c(OCC4CCCO4)c3)nn(-c3nc(C(=O)O)cs3)c2CC2CC2)cc1F (stereo not drawn) [Compound 469]	< 100 nM

# context switch: different molecule, same IC50
Request: For NS(=O)(=O)c1ccc(Cc2c(-c3ccc(F)c(Oc4ccc(C(F)(F)F)cc4)c3)nn(-c3nc(C(=O)O)cs3)c2CC2CC2)cc1F [Compound 512] , what is its reported IC50?
Response: < 100 nM

###

- study system: Human LDHA (Homo sapiens (Human), UniProt P00338)
- assay procedure: human LDHA primary biochemical assay (resazurin/diaphorase coupled, fluorescence)
- conditions used: LDHA inhibitory activity, assay of Example 1; activity level classes
recorded endpoint: IC50

Here's what some known entries look like.
smiles	study system	IC50
Cc1ccc(-c2cccc(-c3nn(-c4nc(C(=O)O)cs4)c(CC4CC4)c3Cc3ccc(S(N)(=O)=O)cc3F)c2)cc1	Human LDHA (Homo sapiens (Human), UniProt P00338)	< 100 nM
COc1cccc(-c2cc(-c3nn(-c4nc(C(=O)O)cs4)c(C4CC4)c3Cc3ccc([S+](N)(=O)[O-])cc3F)ccc2F)c1	Human LDHA (Homo sapiens (Human), UniProt P00338)	< 100 nM
NS(=O)(=O)c1ccc(Cc2c(-c3ccccc3)nn(-c3nc(C(=O)O)cs3)c2C(F)(F)F)cc1	Human LDHA (Homo sapiens (Human), UniProt P00338)	< 100 nM

# context switch: different molecule, same IC50
Request: For O=C(O)c1csc(-n2cc(CNS(=O)(=O)N3CCNCC3)c(-c3ccccc3)n2)n1 , what is its reported IC50?
Response: > 57000 nM

###

Please provide measured pIC50 for the entries that follow.
- study system: Human LDHA (Homo sapiens (Human), UniProt P00338)
- assay procedure: human LDHA primary biochemical assay (resazurin/diaphorase coupled, fluorescence)
- conditions used: LDHA inhibitory activity, activity level based on IC50 (Table 7)
pIC50: −log10 of the molar value.

Here's what some known entries look like.
molecule	pIC50
NS(=O)(=O)c1ccc(Cc2c(-c3cccc(Oc4ccccc4)c3)nn(-c3nc(C(=O)O)cs3)c2C2CC2)cc1 [Compound 502]	> 7.00
N[S+](=O)([O-])c1ccc(Cc2c(-c3ccc(F)c(-c4ccccc4F)c3)nn(-c3nc(C(=O)O)cs3)c2CC2CC2)cc1F [Compound 366]	> 7.00
NS(=O)(=O)c1ccc(Cc2c(-c3cc(F)cc(-c4cccc(F)c4)c3)nn(-c3nc(C(=O)O)cs3)c2CC2CC2)cc1 [Compound 523]	6.00 to 7.00
COc1cccc(COc2cccc(-c3nn(-c4nc(C(=O)O)cs4)cc3Cc3ccc(S(N)(=O)=O)cc3)c2)c1 [Compound 462]	> 7.00

Parameters: items (list). Returns: pIC50 for each item.
1. CC(C)C#Cc1cc(-c2nn(-c3nc(C(=O)O)cs3)c(CC3CC3)c2Cc2ccc([S+](N)(=O)[O-])c(F)c2)ccc1F [Compound 445]
2. Cc1ccc(-c2cc(-c3nn(-c4nc(C(=O)O)cs4)cc3Cc3ccc(S(N)(=O)=O)cc3)ccc2C)cc1C#N [Compound 496]
3. N[S+](=O)([O-])c1ccc(Cc2c(-c3ccc(F)c(C4=COCCC4)c3)nn(-c3nc(C(=O)O)cs3)c2CC2CC2)cc1F [Compound 379]
4. NS(=O)(=O)c1ccc(Cc2c(-c3ccc(F)c(Oc4ccc(F)cc4)c3)nn(-c3nc(C(=O)O)cs3)c2CC2CC2)cc1F [Compound 511]
5. N[S+](=O)([O-])c1ccc(Cc2c(-c3cccc(OC4CCCC4)c3)nn(-c3nc(C(=O)O)cs3)c2CC2CC2)c(F)c1 [Compound 338]
6. O=C(O)c1csc(-n2nc(-c3ccc(Cl)cc3)cc2C(F)(F)F)n1 [Compound 427]
7. CC(C)CC#Cc1cc(-c2nn(-c3nc(C(=O)O)cs3)c(CC3CC3)c2Cc2ccc(S(N)(=O)=O)c(F)c2)ccc1F [Compound 538]
8. NS(=O)(=O)c1ccc(Cc2c(-c3cccc(Oc4ccc(F)cc4)c3)nn(-c3nc(C(=O)O)cs3)c2CC2CC2)cc1 [Compound 507]

Response:
> 7.00
6.00 to 7.00
> 7.00
> 7.00
> 7.00
4.24 to 6.00
> 7.00
> 7.00

Request: For NS(=O)(=O)c1ccc(Cc2c(-c3ccc(F)c(C4CC4)c3)nn(-c3nc(C(=O)O)cs3)c2CC2CC2)cc1Cl [Compound 406] , what is its reported pIC50?
Response: > 7.00
